# Tested on: Swiss-Webster male mice
# measurementDescription: Mouse Activity and Screen Test Procedure (MAST): screen test (ST)
# Type: in vivo
# testContext: 30 mg/kg intraperitoneally, one hour postinjection
measuredQuantity: Screen test failure (%)

Recorded Screen test failure, per entry:
compound="COc1ccc2c(c1)CCCC2Nc1ncnc2c1ncn2[C@@H]1O[C@H](CO)[C@@H](O)[C@H]1O (stereo partly shown) [Example 6, N^6-[1-(6-Methoxy)-tetralinyl]-adenosine]" number=44
compound="OC[C@H]1O[C@@H](n2cnc3c(NC4CCCc5c(O)cccc54)ncnc32)[C@H](O)[C@@H]1O (stereo partly shown) [Example 16, N^6-[1-(5-hydroxy)-tetralinyl]-adenosine]" number=0
compound="CC(=O)Oc1ccccc1C(=O)OC[C@H]1O[C@@H](n2cnc3c(NC4CCCc5ccccc54)ncnc32)[C@H](O)[C@@H]1O (stereo partly shown) [Example 14]" number=22
compound="COc1ccc2c(c1)C(Nc1ncnc3c1ncn3[C@H]1O[C@H](CO)[C@@H](O)[C@H]1O)CCC2 (stereo partly shown) [Example 9]" number=11
compound="OC[C@H]1O[C@@H](n2cnc3c(NCC4(O)CCCCc5ccccc54)ncnc32)[C@H](O)[C@@H]1O (stereo partly shown) [Example 27]" number=0

(P) CC(=O)OC[C@H]1O[C@@H](n2cnc3c(NC4CCCc5ccccc54)ncnc32)[C@H](O)[C@@H]1O (stereo partly shown) [Example 15, N^6-(1-tetralinyl)-5'-acetyl-adenosine]
(Q) CCOC(=O)OC[C@H]1O[C@@H](n2cnc3c(NC4CCCc5ccccc54)ncnc32)[C@H](OC(=O)OCC)[C@@H]1OC(=O)OCC (stereo partly shown) [Example 19]
I would appreciate it if you could say which entry, P or Q , has the lower Screen test failure value. Respond using the label that marks the chosen record. Q
(Q: 11%, P: 55%)

(I) CC1(C)O[C@@H]2[C@H](O1)[C@@H](CO)O[C@H]2n1cnc2c(NC3CCCc4ccccc43)ncnc21 (stereo partly shown) [Example 12]
(II) OC[C@H]1O[C@@H](n2cnc3c(NCC4=CCCCc5ccccc54)ncnc32)[C@H](O)[C@@H]1O [Example 26]
Larger number for Screen test failure: I , or II ? # answer = label of selected item II

(I) Cc1cc(C)c2c(c1)C(Nc1ncnc3c1ncn3[C@@H]1O[C@H](CO)[C@@H](O)[C@H]1O)CCC2 (stereo partly shown) [Example 18]
(II) OC[C@H]1O[C@@H](n2cnc3c(NCC4(O)CCc5ccccc54)ncnc32)[C@H](O)[C@@H]1O (stereo partly shown) [Example 25]
Please choose the item with the lower Screen test failure value from this pair: I and II Write down the label of the entry you select. I
(I: 0%, II: 66%)
